Tested on: Salmonella
method_notes: Antibacterial activity against Salmonella S1.1152 measured after 120 days of sample dissolution by serial dilution method
Format: functional
compounds and their reported MIC
Number in µg/mL, nothing else.

Here are 4 compounds together with their reported answers.
>>> readout_value("Nc1nnc(SCC(=O)NC2CCN(c3c(F)cc4c(=O)c(C(=O)O)cn(C5CC5)c4c3Cl)C2)s1 (stereo not given)")
16
>>> readout_value("NC1CCN(c2c(F)cc3c(=O)c(C(=O)O)cn(C4CC4)c3c2Cl)C1 (stereo not given) [CLINAFLOXACIN]")
1
>>> readout_value("Nc1n[nH]c(SCC(=O)NC2CCN(c3c(F)cc4c(=O)c(C(=O)O)cn(C5CC5)c4c3Cl)C2)n1 (stereo not given)")
16
>>> readout_value("O=C(Cn1ccnn1)NC1CCN(c2c(F)cc3c(=O)c(C(=O)O)cn(C4CC4)c3c2Cl)C1 (stereo not given)")
16

Here's the next entry for you.
Could you share which MIC value was measured for Nc1ccn(CC(=O)NC2CCN(c3c(F)cc4c(=O)c(C(=O)O)cn(C5CC5)c4c3Cl)C2)n1 (stereo not given) ?
16

The reported measurements were obtained from ChEMBL document CHEMBL4371034.
